assay details: gradient 5% acetonitrile 3 min, to 50% in 2 min, to 85% in 15 min, held 3 min, 100 µL/min
recorded conditions: column: Zorbax Extend-C18 2.1 x 50 mm; eluents: water / acetonitrile, 0.1% formic acid
Entries and their measured RP-LC retention time follow.
Report as: number unit

Example results:
Cc1ccc(CS(=O)(=O)N2CCC(c3cc(N)on3)CC2)cc1C: 826 s
Cc1ccc2c(=O)c(C(=O)N3CCOCC3)cn(CC(=O)NC3CCCCC3)c2n1: 653 s
CCc1ccc(-c2ccc(-n3nc(C)c(S(=O)(=O)NC4CC4)c3C)nn2)cc1: 1070 s

Look up RP-LC retention time for this compound: CCOC(=O)N1CCN(S(=O)(=O)c2cn(C)nc2C)CC1
644 s

Look up RP-LC retention time for this compound: COc1ccc(-c2ccc3nc(N4CCC(C(=O)NC5CC5)CC4)sc3n2)cc1
746 s
